- SYSTEM: T1, human glycophorin A in the red blood cell membrane (human, UniProt P02724 20-150)
- T1 construct: whole, on cells; used for intact RBC, isolated RBC membranes and transfected cells; the assay field tells which; also called GPA; hGPA
- T1 sequence (looked up): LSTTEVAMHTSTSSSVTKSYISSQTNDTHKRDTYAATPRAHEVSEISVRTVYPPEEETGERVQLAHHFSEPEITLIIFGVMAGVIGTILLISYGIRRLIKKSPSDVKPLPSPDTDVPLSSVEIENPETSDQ
- TEST_NAME: FACS, IgG
READOUT: binding result

Hu6C12-10 (antibody, V domains shown, IgG format; VH.1a + Vk.1a) VH: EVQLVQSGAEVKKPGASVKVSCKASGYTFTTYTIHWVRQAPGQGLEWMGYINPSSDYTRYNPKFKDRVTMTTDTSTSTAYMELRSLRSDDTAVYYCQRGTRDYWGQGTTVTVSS VL: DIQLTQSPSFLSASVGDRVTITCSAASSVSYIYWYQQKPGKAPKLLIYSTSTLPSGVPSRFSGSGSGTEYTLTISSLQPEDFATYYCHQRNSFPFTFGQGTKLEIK; no binding
Hu6C12-4 (antibody, V domains shown, IgG format; VH.1d + Vk.1) VH: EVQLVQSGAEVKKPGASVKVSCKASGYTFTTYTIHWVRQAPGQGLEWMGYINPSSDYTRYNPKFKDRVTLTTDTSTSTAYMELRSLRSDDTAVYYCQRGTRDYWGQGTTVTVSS VL: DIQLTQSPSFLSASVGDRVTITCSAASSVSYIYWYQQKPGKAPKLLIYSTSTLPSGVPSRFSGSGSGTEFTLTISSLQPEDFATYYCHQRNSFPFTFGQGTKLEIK; no binding
Hu6C12-13 (antibody, V domains shown, IgG format; VH.1d + Vk.1a) VH: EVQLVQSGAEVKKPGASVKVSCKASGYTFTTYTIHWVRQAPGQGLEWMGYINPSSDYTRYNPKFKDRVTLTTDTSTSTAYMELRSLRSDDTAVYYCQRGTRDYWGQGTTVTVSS VL: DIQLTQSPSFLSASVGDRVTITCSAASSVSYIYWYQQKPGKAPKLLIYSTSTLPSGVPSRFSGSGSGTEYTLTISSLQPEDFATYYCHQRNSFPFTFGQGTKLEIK; no binding
